# protocolText: The drug is tested on Z-017 corresponding to mouse gut metagenome with ENA study accession number: PRJEB37062 and ENA sample accession number: ERS12561816 for biotransformation under anaerobic condition. The drug concentrations were measured over 9 timepoints collected between 0 and 24 hours of incubation by liquid-chromatography-coupled mass spectrometry (LC–MS); also: call rule not given here
# experimentalParameters: 2 µM
parameterMeasured: Bacterial Biotransformation

molecule	Bacterial Biotransformation
Cc1ccc(-c2cc(C(F)(F)F)nn2-c2ccc(S(N)(=O)=O)cc2)cc1	Compound NOT metabolized
CCCCCOC(=O)Nc1nc(=O)n([C@@H]2O[C@H](C)[C@@H](O)[C@H]2O)cc1F	Compound metabolized
COc1ccc2[nH]c([S+]([O-])Cc3ncc(C)c(OC)c3C)nc2c1 (stereo not drawn)	Compound NOT metabolized
CCOC(=O)[C@H](CCc1ccccc1)N[C@@H](C)C(=O)N1[C@H](C(=O)O)C[C@H]2CCCC[C@@H]21	Compound NOT metabolized
COc1ccc2[nH]c([S+]([O-])Cc3ncc(C)c(OC)c3C)nc2n1 (stereo not drawn)	Compound metabolized

Consider the molecule COc1ccc2c3c1O[C@H]1C[C@@H](O)C=C[C@@]31CCN(C)C2 and give its measured Bacterial Biotransformation.
Compound NOT metabolized

Please answer likewise for N#Cc1ccc(C(c2ccc(C#N)cc2)n2cncn2)cc1
Compound NOT metabolized

Please answer likewise for Cc1ccc(S(=O)(=O)NC(=O)NN2CC3CCCC3C2)cc1 (stereo not drawn) [GLICLAZIDE]
Compound NOT metabolized

Data provenance is ChEMBL document CHEMBL5724914.
